Quantity: melting point

Give the measured melting point of CCS(=O)(=O)c1cc(C(F)(F)F)cnc1C(=O)/N=c1\ccc(SC(F)(F)F)cn1C . 167 to 169 °C

Give the measured melting point of CCS(=O)(=O)c1cc(C(F)(F)F)cnc1C(=O)/N=c1\sc(C(F)(F)C(F)(F)F)nn1C . 123 to 125 °C

Give the measured melting point of CCS(=O)(=O)c1cc(C(F)(F)F)cnc1C(=O)/N=c1\cc(C(F)(F)F)ccn1C . 153 to 155 °C

Give the measured melting point of CCS(=O)(=O)c1cc(C(F)(F)F)ccc1C(=O)/N=c1\sc(C(F)(F)F)nn1C . 195 to 197 °C

Give the measured melting point of CCS(=O)(=O)c1cc(C(F)(F)F)cnc1C(=O)/N=c1\scc(C(F)(F)F)n1C . 163 to 165 °C

The measurements presented in this section are drawn from patent US9701659B2.
